These entries and their values trace back to PubChem BioAssay.

Experiment: ovarian cancer cell viability with rucaparib, profiling panel, oncology-focused library, rucaparib conditional (AID 1508598)
Conditions: patient-derived ovarian cancer cells, CellTiter-Glo viability, 144 h; at 1.25 µM; OCI-P5x cells; without rucaparib
The source made the active and inactive calls.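 The calls were made as follows: active = normalized viability below 100% at a tested concentration; inactive = the rest.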
Outcome codes: True for active, False for inactive

Compound: O=c1cc(N2CCOCC2)oc2c(-c3ccccc3)cccc12
Class label: False
--
Compound: C[C@@H](N)C1CCC(C(=O)Nc2ccncc2)CC1 (stereo not given in full)
Class label: False
--
Compound: Cn1cc(C2=C(c3ccc(Cl)cc3Cl)C(=O)NC2=O)c2ccccc21
Class label: True
--
Compound: Cc1ccc(S(=O)(=O)/C=C/C#N)cc1
Class label: True
--
Compound: N#Cc1c(O)c2c(-c3ccc(-c4ccccc4O)cc3)csc2[nH]c1=O
Class label: False
